System: 521955-158-R2-J5-PDC complex spheroid viability;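 note: spheroids exposed to agents for one week before reading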
Assay: Anticancer human tumor 521955-158-R2-J5-PDC patient-derived pancreatic carcinoma cell line growth inhibition [GQUAD]
Study Conditions: curve of first compound; second compound 0.1 µM
Assignment: determine reported IC50 for the given molecules.
One number for each entry, in nM.

Answered examples (5):
# Molecule, IC50 [nM]
records = [
    ("CC(C)(O)C1CCC(Nc2ccc3ncc(-c4cccc(C(F)(F)F)c4)n3n2)CC1 (stereo unspecified) + Cc1[nH]c2ccc(F)cc2c1-c1nc2c3cccnc3c3ncccc3c2[nH]1", 1990),
    ("COc1ccc([C@@H](O)c2cc(-c3ncnc4cc(N5CCOCC5)ccc34)c(F)cc2Cl)nn1 + Cc1cnc(CNC(=O)c2c(=O)c3ccc(N4CCCN(C)CC4)nc3n3c2sc2ccccc23)cn1", 225),
    ("CC(=O)O[C@H]1C(=O)[C@@]2(C)[C@H]([C@H](OC(=O)c3ccccc3)[C@]3(O)C[C@H](OC(=O)[C@H](O)[C@@H](NC(=O)c4ccccc4)c4ccccc4)C(C)=C1C3(C)C)[C@]1(OC(C)=O)CO[C@@H]1C[C@@H]2O + CN(C)c1ccc(Nc2c3ccc(NC(=O)CCN4CCCC4)cc3nc3cc(NC(=O)CCN4CCCC4)ccc23)cc1", 44.8),
    ("O=c1[nH]cc(F)c(=O)[nH]1 + Cc1cnc(CNC(=O)c2c(=O)c3ccc(N4CCCN(C)CC4)nc3n3c2sc2ccccc23)cn1", 1540),
    ("C=CCn1c(=O)c2cnc(Nc3ccc(N4CCN(C)CC4)cc3)nc2n1-c1cccc(C(C)(C)O)n1 + Cc1[nH]c2ccc(F)cc2c1-c1nc2c3cccnc3c3ncccc3c2[nH]1", 182),
]

Below is a list of molecules. For each, state its recorded IC50.
1. COc1cccc2c1C(=O)c1c(O)c3c(c(O)c1C2=O)CC(O)(C(=O)CO)CC3OC1CC(N)C(O)C(C)O1 (stereo unspecified) + CN(C)c1ccc(Nc2c3ccc(NC(=O)CCN4CCCC4)cc3nc3cc(NC(=O)CCN4CCCC4)ccc23)cc1
2. O=C(NO)c1cnc(N2CCN(S(=O)(=O)c3ccc4ccccc4c3)CC2)nc1 + CN(C)c1ccc(Nc2c3ccc(NC(=O)CCN4CCCC4)cc3nc3cc(NC(=O)CCN4CCCC4)ccc23)cc1
3. Nc1ccn(C2OC(CO)C(O)C2(F)F)c(=O)n1 (stereo unspecified) + Cc1[nH]c2ccc(F)cc2c1-c1nc2c3cccnc3c3ncccc3c2[nH]1
4. O=C(NO)c1cnc(N2CCN(S(=O)(=O)c3ccc4ccccc4c3)CC2)nc1 + Cc1[nH]c2ccc(F)cc2c1-c1nc2c3cccnc3c3ncccc3c2[nH]1
5. CC1COCCN1c1cc(-c2ccnn2C)c2ccnc(-c3ccn[nH]3)c2n1 (stereo unspecified) + CN(C)c1ccc(Nc2c3ccc(NC(=O)CCN4CCCC4)cc3nc3cc(NC(=O)CCN4CCCC4)ccc23)cc1
6. COc1cccc2c1C(=O)c1c(O)c3c(c(O)c1C2=O)CC(O)(C(=O)CO)CC3OC1CC(N)C(O)C(C)O1 (stereo unspecified) + Cc1[nH]c2ccc(F)cc2c1-c1nc2c3cccnc3c3ncccc3c2[nH]1

Found:
1: 221; 2: 668; 3: 424; 4: 966; 5: 54.6; 6: 193

This collection of values is drawn from PubChem BioAssay AID2060495.
